// reported melting point for each item listed
recorded_endpoint: melting point

- COC(=O)COc1ccc(N)cc1Cl: 66 to 68 °C
- CC1(CO)CCN(Cc2ccccc2)CC1: 59 to 61 °C
- COc1ccc(S(N)(=O)=O)c(N)c1: 139 to 141 °C
- NC(=S)Cc1nc2ccccc2[nH]1: 204 to 207 °C
- COC(=O)c1cc(Br)ccc1S(=O)(=O)Cl: 66 to 70 °C
- O=C(Cc1nc2ccccc2[nH]1)C(F)(F)F: 249 to 251 °C
- CC(C)N1C2CCC1CC(C(=O)O)C2 (centres undefined): 223 to 225 °C
- CC(=O)c1ccc(S(=O)(=O)N2CCCCCC2)cc1: 73 to 77 °C
- CCc1cccc(CC)c1Nc1nnc(S)s1: 165 to 167 °C
- CC(C)(C)Cc1noc2ncc(C(=O)O)cc12: 231 to 233 °C
- Cc1nnc(S)n1N: 186 to 188 °C
- ClCc1nnc(-c2ccccc2Br)o1: 104 to 107 °C
- CC1(C)COC2(CCNCC2)OC1: 62 to 64 °C
- Cc1ccc(F)c(-n2nnnc2CCl)c1: 51 to 53 °C

====

Recorded measurements of melting point, one per entry
recorded_endpoint: melting point

- NC(=S)NCc1cccc(C(F)(F)F)c1: 97 to 99 °C
- CC(C)(C)C(=O)Nc1ccc(Cl)c(C(F)(F)F)c1: 132 to 134 °C
- CN1C(=O)CCC(C(=O)O)C1c1cccs1 (centres undefined): 154 to 156 °C
- CCn1c(=O)n(CCC(=O)O)c2ccccc21: 179 to 181 °C
- CC(Cl)C(=O)Nc1ccc(OCc2ccccc2)cc1 (centres undefined): 141 to 145 °C
- CC(C)S(N)(=O)=O: 44 to 46 °C
- O=C(CCCl)Nc1ccc2c(c1)OCO2: 142 to 144 °C
- NS(=O)(=O)c1ccc([N+](=O)[O-])s1: 139 to 141 °C
- CCc1c(-c2ccc(Br)cc2)n[nH]c1N: 94 to 96 °C
- CCOCCNC(N)=O: 60 to 62 °C
- COc1ccc(OC)c(-c2cc(C(=O)O)no2)c1: 192 to 194 °C
- NNC(=O)Nc1c(Cl)cc(Cl)cc1Cl: 229 to 231 °C
- Fc1ccc(CNc2nc3ccccc3s2)cc1: 155 to 157 °C
- O=C(O)c1cc(-c2cccc3ccccc23)nc2ccccc12: 225 to 227 °C
- NC(=O)Nc1ccc2c(c1)OCO2: 178 to 182 °C
- CC1CCN(C(=O)CCl)c2ccccc2S1 (centres undefined): 125 to 127 °C
- Cc1nnc(NN)[nH]c1=O: 237 to 239 °C
- CC(=O)Cn1cnc(C)c1C: 80 to 82 °C
- Nc1cccc(-c2nccs2)c1: 62 to 64 °C
- O=C(O)C1CC2CCCC(C1)C2=O (centres undefined): 129 to 131 °C
- N#CCC(=O)N1CCS(=O)(=O)CC1: 157 to 159 °C
- O=C(O)c1cscn1: 195 to 197 °C
- Cc1ncc(C(=O)O)c(C(C)C)n1: 168 to 170 °C
- N#Cc1ccc(N2C(=O)C=CC2=O)cc1: 138 to 140 °C
- O=C(O)c1cnoc1C1CC1: 159 to 161 °C
- O=C(Nc1ccc(C(F)(F)F)cc1)OCC(F)(F)F: 102 to 104 °C
- Cc1c[nH]c(=O)n1-c1ccccc1: 210 to 212 °C
- COc1cc(N)c(O)cc1[N+](=O)[O-]: 149 to 151 °C
- NCCCc1nc(C2CC2)n[nH]1: 207 to 209 °C

====

recorded_endpoint: melting point

- Clc1ccc(-n2ccnc2)nn1: 185 to 187 °C
- Cc1nn(C)c(C)c1C(CC(=O)O)C(F)(F)F (stereo not drawn): 130 to 132 °C
- O=C(O)c1ccc(SC2CC2)cc1: 156 to 158 °C
- CN(C)c1ccc(/C=C/c2cc(C(=O)O)c3cc(Br)ccc3n2)cc1: 298 to 300 °C
- O=C(O)c1cccn1CCc1ccccc1: 119 to 121 °C
- CCCn1c(=O)[nH]c(=O)c2[nH]cnc21: 288 to 290 °C
- CS(=O)(=O)CCCS(=O)(=O)Cl: 62 to 64 °C
- O=C(O)c1ccc(-c2noc(-c3ccc(F)cc3)n2)cc1: 291 to 293 °C
- O=C(O)c1ccn(-c2cccc(Br)c2)n1: 142 to 144 °C
- Nc1cc(C2CCOCC2)no1: 159 to 161 °C
- CCOc1ccc(C(C)=O)cc1[N+](=O)[O-]: 54 to 56 °C
- CCOC(=O)c1cnc(N2CCNCC2)s1: 73 to 75 °C
- Cc1ccc2cc(CCl)c(Cl)nc2c1: 132 to 134 °C

====

recorded_endpoint: melting point

- O=Cc1c(Cl)cccc1OC(F)F: 37 to 39 °C
- COc1ccc(C)cc1NC(=O)CCl: 73 to 75 °C
- Nc1ccc(Cc2nc3ccccc3s2)cc1: 219 to 221 °C
- Nc1cc(=O)[nH][nH]1: 204 to 206 °C
- COC(=O)c1cc2c(OC(F)F)cccc2[nH]1: 144 to 146 °C
- OCc1cccc2nccn12: 154 to 156 °C
- NC(=O)Cn1cnc2cc(C(=O)O)ccc21: 298 to 300 °C
- COC(=O)C(O)c1cccc(Cl)c1 (centres undefined): 80 to 82 °C
- CCN(CC)S(=O)(=O)c1ccc(Cl)c(S(=O)(=O)Cl)c1: 99 to 101 °C
- Cc1cc(Cl)c2cc(Br)cc(C)c2n1: 134 to 136 °C
- CCC(CC)(Cc1nc2ccccc2s1)C(=O)O: 143 to 145 °C
- NS(=O)(=O)CCc1ccc([N+](=O)[O-])cc1: 118 to 120 °C
- CCCCNC(=O)Nc1cccc2c1CCCN2: 173 to 175 °C
- CCCCCS(N)(=O)=O: 62 to 64 °C
- Cn1ncnc1COc1ccc(S(N)(=O)=O)cc1: 176 to 178 °C
- O=C(O)c1ccc(COc2ccccc2)cc1: 214 to 216 °C
- O=C(Cn1cc(C(=O)O)cn1)NC1CCCCC1: 247 to 249 °C
- CC(=O)Nc1cc(N)ccc1Cl: 200 to 202 °C
- O=[N+]([O-])c1ccc(F)c(-n2cnnn2)c1: 101 to 103 °C
- CS(=O)(=O)C1(C(=O)O)CCCC1: 117 to 119 °C
- COCc1nc(CC(=O)O)cs1: 59 to 61 °C
- CC(C)(C)c1nccc(N)n1: 64 to 66 °C
- CCOC(=O)CNc1ccccc1-c1ccccc1: 53 to 55 °C
- N#Cc1ccc(OCC(=O)NN)cc1: 180 to 182 °C
- O=C(O)C1CC(c2ccc(Cl)cc2Cl)=NO1 (centres undefined): 115 to 117 °C
- O=C(O)Cc1csc(N2CCCNC2=O)n1: 184 to 186 °C
- COc1cccc(-c2nc(CC(=O)O)cs2)c1OC: 156 to 158 °C
- COC(=O)c1cc(N)cc(I)c1: 79 to 81 °C
- CC(C)(C)NC(=O)c1ccccc1N: 124 to 125 °C

====

recorded_endpoint: melting point

• COC(=O)c1cc(S(=O)(=O)N2CCOCC2)ccc1Cl = 74 to 76 °C
• Cc1cccc([N+](=O)[O-])c1C(N)=O = 158 to 160 °C
• CS(=O)(=O)NC1CCNCC1 = 143 to 145 °C
• O=C(O)c1ccc(NC(=O)N2CCCCC2)c(F)c1 = 179 to 181 °C
• Cc1c(S(=O)(=O)Cl)sc2cc(Cl)ccc12 = 83 to 85 °C
• CCCC(NC(=O)c1ccccc1)C(N)=S (configuration not stated) = 202 to 204 °C
• CC(C)(C)n1cc(C(=O)O)c(Br)n1 = 163 to 165 °C
• Nc1cccc(S(=O)(=O)Nc2ccccc2F)c1 = 195 to 197 °C
• Cn1ccnc1-c1noc(N)n1 = 197 to 199 °C
• Cc1c(C)c(C)c(S)c(C)c1C = 62 to 64 °C
• Cc1nc(-c2ccccc2)sc1CCl = 84 to 86 °C
• O=C(O)Cc1csc(-c2ccc(Cl)cc2)n1 = 255 to 257 °C
• O=[N+]([O-])c1cc(S(=O)(=O)Nc2nc3ccccc3nc2Cl)ccc1Cl = 180 to 182 °C
• CC(C)(C)OC(=O)N1CCC(O)(C(F)(F)F)C1 (configuration not stated) = 102 to 104 °C
• Nc1nc(-c2cccnc2)cs1 = 189 to 193 °C
• Cc1cc(/C=C/C(=O)O)c(C)n1-c1nccs1 = 160 to 162 °C
• O=[N+]([O-])c1ccc(Oc2ccc([N+](=O)[O-])cc2)cc1 = 144 to 146 °C
• Nc1cc(S(=O)(=O)N2CCCC2)ccc1O = 163 to 165 °C
• COc1cc(OC)cc(-n2c(C)c(C)c(C#N)c2N)c1 = 166 to 168 °C
• COc1cc(C=O)cc(Br)c1OCc1ccccc1 = 48 to 50 °C
• CC(=O)Nc1ccc(N=C=S)cc1 = 199 to 201 °C
• N#Cc1cccc(S(=O)(=O)n2ccc(N)n2)c1 = 183 to 185 °C
• COc1ccc(S(=O)(=O)N2CCC(=NO)CC2)cc1 = 164 to 166 °C
• Cc1cc(S(=O)(=O)Cl)c(Cl)cc1F = 44 to 46 °C
• NC(=NO)c1ccc(O)cc1Cl = 153 to 155 °C
• O=C(O)COc1ccc2oc3ccccc3c2c1 = 132 to 134 °C
• Oc1ccc(Cl)cc1C(F)(F)F = 67 to 69 °C
